system.under.test: PTP-1B (Homo sapiens)
Construct: PTP-1B (purified, 1 mg/mL) as a 1:250 dilution
Sequence (P18031 1-321 limits assumed): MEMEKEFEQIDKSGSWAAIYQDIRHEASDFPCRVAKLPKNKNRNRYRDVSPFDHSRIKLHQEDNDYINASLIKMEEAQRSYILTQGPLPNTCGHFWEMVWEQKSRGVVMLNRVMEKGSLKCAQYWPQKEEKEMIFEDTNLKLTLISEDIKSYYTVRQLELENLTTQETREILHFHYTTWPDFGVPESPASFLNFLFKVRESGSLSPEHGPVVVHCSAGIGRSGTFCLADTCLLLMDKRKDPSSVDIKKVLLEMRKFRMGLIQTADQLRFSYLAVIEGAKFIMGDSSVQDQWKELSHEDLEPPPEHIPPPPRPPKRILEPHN
protocol.description: pNPP tyrosine phosphatase inhibition assay, PTP-1B
Format: biochemical
condition.label: pNPP assay, PTP-1B; read-out: Activity Class (IC50 ranges)
// values below are reported IC50

INSERT INTO measurements (structure_smiles_string, system_under_test, test_result) VALUES
  ('O=C(OCc1ccccc1)N(Cc1ccc(C(F)(F)P(=O)(O)O)cc1)Cc1ccc(C(F)(F)P(=O)(O)O)cc1', 'PTP-1B (Homo sapiens)', '2500 to 25000 nM'),
  ('N#Cc1cccc(S(=O)(=O)N(Cc2ccc(C(F)(F)P(=O)(O)O)c(Cl)c2)Cc2ccccc2-c2ccccc2)c1', 'PTP-1B (Homo sapiens)', '250 to 499 nM');

Q) # get_value(readout='IC50', item= O=C(NCc1ccccc1)N(Cc1ccc(C(F)(F)P(=O)(O)O)cc1)Cc1ccc(C(F)(F)P(=O)(O)O)cc1 )
A) > 25000 nM

Q) # get_value(readout='IC50', item= COc1ccccc1S(=O)(=O)N(Cc1ccc(C#N)cc1)Cc1ccc(NS(=O)(=O)C(F)(F)F)cc1 )
A) > 25000 nM

Q) # get_value(readout='IC50', item= O=C(O)c1ccc(CN(Cc2ccc(C(F)(F)P(=O)(O)O)c(Br)c2)S(=O)(=O)c2ccccc2Cl)cc1 )
A) < 99 nM

Q) # get_value(readout='IC50', item= COc1ccccc1S(=O)(=O)N(Cc1ccc(C(=O)C(=O)O)cc1)Cc1ccc(S(C)(=O)=O)cc1 )
A) > 25000 nM

Q) # get_value(readout='IC50', item= COC(=O)c1ccc(CN(Cc2ccc(C(F)(F)P(=O)(O)O)c(Br)c2)S(=O)(=O)c2ccccc2)cc1 )
A) 250 to 499 nM

Q) # get_value(readout='IC50', item= COc1ccccc1S(=O)(=O)N(Cc1ccc(-c2ccc(C(=O)O)c(F)c2)cc1)Cc1ccc(C(F)(F)P(=O)(O)O)c(Cl)c1 )
A) < 99 nM

Q) # get_value(readout='IC50', item= O=P(O)(O)C(F)(F)c1ccc(CN(Cc2ccc(C(F)(F)P(=O)(O)O)cc2)S(=O)(=O)c2cccc3ccccc23)cc1 )
A) 2500 to 25000 nM

Q) # get_value(readout='IC50', item= COC(=O)c1cccc(-c2cccc(CCN(Cc3ccc(C(F)(F)P(=O)(O)O)c(Cl)c3)S(=O)(=O)c3ccccc3OC)c2)c1 )
A) 250 to 499 nM

Q) # get_value(readout='IC50', item= N#Cc1cccc(-c2ccc(CN(Cc3ccc(C(F)(F)P(=O)(O)O)c(Cl)c3)S(=O)(=O)c3ccc4ccccc4c3)cc2)c1 )
A) 250 to 499 nM

Q) # get_value(readout='IC50', item= COc1ccccc1S(=O)(=O)N(Cc1ccc(C(F)(F)P(=O)(O)O)c(Cl)c1)Cc1ccccc1C )
A) 250 to 499 nM

Q) # get_value(readout='IC50', item= COc1ccccc1S(=O)(=O)N(Cc1ccc(C(F)(F)P(=O)(O)O)c(Cl)c1)Cc1ccccc1-c1ccncc1 )
A) 100 to 249 nM

Q) # get_value(readout='IC50', item= O=C(O)c1ccc(CN(Cc2ccc(C(=O)O)cc2Br)S(=O)(=O)c2ccccc2)cc1 )
A) > 25000 nM
